Tested on: RPMI-8226 leukemia
protocol description: NCI tumour cell line growth inhibition, 48 h
Please note: 1.0 applies when TGI is 30 µM or greater, and 0.0 applies otherwise.

                                   molecule  cat
0  O=C1NC(=S)NC(=O)C1=C/C=C/c1ccc([N+](=O)[O-])cc1  1.0
1  S=C(N1CCN(c2ccccc2)CC1)N1CCN(c2ccccc2)CC1  1.0
2           O=Nc1c(O)cc(Nc2cccnc2)c2ccccc12  1.0
3  Nc1nc(=S)n(-c2ccc(Cl)cc2)c2nc3ccccc3cc12  1.0
4  CC1C(c2ccccc2O)c2cc3c(cc2OC1N1CCOCC1)OCO3 (centres undefined)  1.0
5  Cc1ccc(N2C(N)=C(C#N)C(C#N)(C#N)C2c2ccccc2)cc1 (centres undefined)  1.0
6  CCOP1(=O)C=C(C)C(=C(Cl)Cl)C(C)=C1 (centres undefined)  0.0
7  Cc1ccc(S(=O)(=O)Nc2ccc(-c3cc(-c4cccc(F)c4)c(C#N)c(N)n3)cc2)cc1  0.0
8  COC(=O)C(=O)C(C(=O)C(=O)Nc1cc(C)ccc1C)c1nc2ccc(C(=O)c3ccccc3)cc2[nH]c1=O (centres undefined)  1.0

// data source = PubChem BioAssay (NCI)
